protocol-details: Time-Resolved Fluorescence Resonance Energy Transfer (TR-FRET) Assay: The human kinase Mps-1 phosphorylates a biotinylated substrate peptide. Detection of the phosphorylated product is achieved by time-resolved fluorescence resonance energy transfer (TR-FRET) from Europium-labelled anti-phospho-Serine/Threonine antibody as donor to streptavidin labelled with cross-linked allophycocyanin (SA-XLent) as acceptor. Compounds are tested for their inhibition of the kinase activity.N-terminally GST-tagged human full length recombinant Mps-1 kinase (purchased from Invitrogen, Karslruhe, Germany, cat. no PV4071) was used. […] The concentration of Mps-1 in the assay was adjusted to the activity of the enzyme lot and was chosen appropriate to have the assay in the linear range, typical enzyme concentrations were in the range of about 1 nM (final conc. in the 5 ul assay volume).
Here, each record is paired with measured pIC50 data.
Keep in mind that pIC50 stands for -log10 of concentration in molar terms.

A selection of reference data follows.
INSERT INTO measurements (molecule, observed_result) VALUES
  ('C=C(c1ccc(OC)cc1)c1cc(NCCC(F)(F)F)c2ncc(-c3ccc(C(=O)NC4CC4)c(C)c3)n2n1', 9.30),
  ('COc1cccc(C(=O)c2cc(NCCC(F)(F)F)c3ncc(-c4ccc(C(=O)NC5CC5)c(C)c4)n3n2)c1', 9.30),
  ('C=C(c1cc(NCCC(F)(F)F)c2ncc(-c3ccc(C(=O)NC4CC4)c(C)c3)n2n1)c1cc(F)ccc1F', 9.22),
  ('COc1ccc(C(=O)c2cc(NCCC(F)(F)F)c3ncc(-c4ccc(C(=O)NC5CC5)c(C)c4)n3n2)cc1', 8.92),
  ('C=C(c1cc(NCCC(F)(F)F)c2ncc(-c3ccc(C(=O)NC4CC4)c(C)c3)n2n1)c1cc(F)ccc1O', 9.40),
  ('Cc1cc(-c2cnc3c(NCCC(F)(F)F)cc(C4(c5cccc(F)c5)CC4)nn23)ccc1C(=O)NC1CC1', 9.05),
  ('C=C(c1cccc(F)c1)c1cc(NCCC(F)(F)F)c2ncc(-c3ccc(C(=O)NC4CC4)c(C)c3)n2n1', 9.52),
  ('C=C(c1cccc(OC)c1)c1cc(NCCC(F)(F)F)c2ncc(-c3ccc(C(=O)NC4CC4)c(C)c3)n2n1', 9.10);

The record that follows has no pIC50 shown yet.
Prompt: Identify measured pIC50 corresponding to "Cc1cc(-c2cnc3c(NCCC(F)(F)F)cc(C(F)(F)c4cccc(F)c4F)nn23)ccc1C(=O)NC1CC1"
Response: 8.82
